- ASSAY_COMMENT: CREB reporter modulators without forskolin, primary screen, cell-based, PC12, CRE-LacZ reporter, unstimulated (AID 1145)
- CONDITION_SUMMARY: no forskolin, luminescence, 4.5 h, higher = more signal, called active from +8 up or from −8 down
Below: a set of entries, each annotated with reported z-score.
QUANTITY_KIND: z-score

1. COc1ccc(C(O)C2C=CC3C(=O)N(c4ccccc4)C(=O)C3N2Nc2ccc([N+](=O)[O-])cc2)cc1OCc1ccccc1 (stereo not given) = -0.387
2. COC(=O)c1ccc(OC)c(/C=C\CC(OC(C)=O)c2ccccc2)c1 (stereo not given) = 0.479
3. CC(C)C(=C=CC[C@H](O)c1ccccc1OCCO)C[C@H](O)c1ccccn1 = 4.99
4. CCCC[C@H]1OB(O)C[C@H]2C1=C(C)C[C@H]1C(=O)N(Cc3ccccc3)C(=O)[C@H]12 = -0.23
5. CC(C)C(=C=CC[C@@H](O)c1ccccc1OCCO)C[C@@H](O)c1ccccn1 = 1.19
6. CC(C)C[C@@H]1NC(=O)[C@H]2C[C@@H](C(=O)NCCCCCCNC(=O)CS)[C@@H](c3cccc(OCCO)c3)N2C1=O = -1.49
7. O=C1C2C=CC(C(O)c3ccc(F)cc3)N(Nc3ccccc3)C2C(=O)N1c1ccccc1 (stereo not given) = -0.522
8. COCCOC(=O)N1C(=O)[C@@]2(c3cc(C#CCNC(N)=O)ccc31)[C@H](c1ccc(OCCO)cc1)N1[C@H](c3ccccc3)[C@H](c3ccccc3)OC(=O)[C@H]1[C@@H]2C(=O)N1CCc2cc(OC)c(OC)cc2C1 = -0.471
9. CN(C)C(=O)[C@]1(CCC(=O)OC(C)(C)C)N=C(c2ccc(OCCCO)cc2)O[C@@H]1c1ccccc1N=[N+]=[N-] = 0.988
10. C[N+](C)(C)CCCCCCNC(=O)[C@H]1C[C@H]2C(=O)N3CCC[C@H]3C(=O)N2[C@H]1c1ccc(O)cc1 = -0.813
11. O=C1O[C@H](c2ccccc2)[C@H](c2ccccc2)N2[C@H]1[C@@H](C(=O)Nc1nc3ccccc3s1)[C@]1(C(=O)Nc3ccccc31)[C@H]2c1ccc(O)cc1 = 0.478
12. Cc1ccc(F)cc1S(=O)(=O)N[C@@H]1CCN(Cc2ccc(-c3ccccc3)cc2)C1 = 6.48
13. CCCCCN1CC=CC23O[C@@H]4C=CCOC(=O)[C@@H]4[C@H]2C(=O)N(CCCO)[C@@H]3C1=O (stereo not given in full) = -1.85
14. C=CC[C@@]1(C(=O)NCC(O)CO)N=C(c2ccc(OCCCO)cc2)O[C@@H]1c1ccccc1N=[N+]=[N-] (stereo not given in full) = 0.573
15. O=C1OCCC=C[C@H]2OC34C=CCN(Cc5ccccc5)C(=O)[C@H]3N(CCCO)C(=O)[C@@H]4C12 (stereo not given in full) = -1.31
16. COc1ccc([Si](C)(C)[C@@H]2[C@@H](CC(=O)N(CCO)Cc3ccccc3)O[C@]3(C(=O)N(C)c4ccccc43)[C@H]2C)cc1 = 11.9
17. CC(C)c1ccc(NN2C(C(O)c3cccc(O)c3)C=CC3C(=O)N(c4ccccc4)C(=O)C32)cc1 (stereo not given) = 1.39
18. O=C(CCN1CCOCC1)c1cccc(O)c1 = 0.182
19. O=C1C=CC(=O)[C@@H]2CC(COc3ccccc3)=C3[C@@H](CCc4ccccc4)OB(O)C[C@@H]3[C@H]12 = 4.76
20. O=C1OCC=C[C@H]2OC34C=CCN(c5ccc6ccccc6c5)C(=O)[C@H]3N(CCCO)C(=O)[C@@H]4[C@@H]12 (stereo not given in full) = 0.337
21. COc1ccc(CCN2C(=O)[C@@]3(Cc4ccccc42)c2ccccc2C(=O)N(Cc2ccccc2Cl)[C@H]3c2ccc(CO)cc2)cc1 = 0.558
22. COCCOC(=O)N1C(=O)[C@@]2(c3cc(C#CCC(C(=O)OC)C(=O)OC)ccc31)[C@H](C(=O)N1CCCCCCC1)[C@H]1C(=O)O[C@H](c3ccccc3)[C@H](c3ccccc3)N1[C@@H]2c1ccc(OCCO)cc1 = -1.15
23. [N-]=[N+]=NCc1ccccc1C[C@@]1(C(=O)N2CCOCC2)N=C(c2ccc(OCCCO)cc2)O[C@@H]1c1ccccc1CN=[N+]=[N-] = 1.7
24. O=C1OCCC/C=C\[C@H]2OC34C=CCN(Cn5nnc6ccccc65)C(=O)[C@H]3N(CCCCCO)C(=O)[C@@H]4C12 (stereo not given in full) = -0.35
25. COC(=O)[C@@]1(Cc2ccccc2)[C@H]2c3cc(C(=O)N(C)C)n(Cc4c(-c5ccccc5)noc4C)c3C[C@H]2CN1C(=O)c1ccccc1 = 0.201
26. COCCCNC(=O)[C@@]1(c2ccc([N+](=O)[O-])cc2)CC(=O)N(CC23CC4CC(CC(C4)C2)C3)[C@@H]1c1ccc(CO)cc1 = -0.179
27. CCCCCCCCCCC(O)C1C=CC2C(=O)N(Cc3ccccc3)C(=O)C2N1n1cnnc1 (stereo not given) = -0.0137
28. [N-]=[N+]=NCc1ccccc1C[C@]1(C(=O)O)N=C(c2ccc(OCCCO)cc2)O[C@H]1c1ccccc1CN=[N+]=[N-] = 2.87
29. C=C[C@H](C)[C@@H](O)c1ccc(O)c2ccccc12 = -0.869
30. COC(=O)[C@@]1(Cc2ccc(OC)cc2)[C@H]2c3cc(C(=O)N(C)C)n(Cc4c(OC)[nH]cc(C)c4=O)c3C[C@H]2CN1C(=O)c1ccccc1 = -0.185
